Every entry's value here was drawn from paper PMC12390684.

System: HIV-1Laï
Assay: microbe, parasite or virus in culture
Type: cell-based
Details: selectivity index
readout-kind: SI (CC50/EC50)

Some compounds with recorded SI (CC50/EC50):
INSERT INTO results (compound, experimental_target, assay_value) VALUES
  ('CCCCCCCC(=O)OCC(=O)C1(O)Cc2c(O)c3c(c(O)c2C(OC2CC(N)C(O)C(C)O2)C1)C(=O)c1c(OC)cccc1C3=O (stereo not shown) [Compound 1g, adriamycin octanoate]', 'HIV-1Laï', 7.9),
  ('S=c1[nH]c2ccccc2nc1NCc1ccccc1 [Compound 3f]', 'HIV-1Laï', '>2.1'),
  ('CCOC(=O)N1CCc2cc(OC)c(OC)c3c2c1cc1cc(OC)c(OC)cc13 [Compound 3d]', 'HIV-1Laï', '>4.9');

// next entry
**Query** Dear colleague, I am looking for the recorded SI (CC50/EC50) of the following compound: COc1cccc2c1C(=O)c1c(O)c3c(c(O)c1C2=O)CC(O)(C(C)=O)CC3OC1CC(N)C(OC2CC(O)C(O)C(C)O2)C(C)O1 (stereo not shown) [Compound 1h]
**Result** >3
